Hello, the source for this data is ChEMBL document CHEMBL5346978, in case you need it.

Each entry below carries its recorded Activity.
biological target: Sphingosine 1-phosphate receptor 1 (Homo sapiens); assay: Agonist activity at S1P1 (unknown origin) expressed in PathHunter CHO-K1 EDG1 beta-arrestin cells assessed as beta-arrestin2 recruitment at 1 uM incubated for 90 mins by chemiluminescence based assay relative to control; type: functional, cell-based
Sequence (P21453 whole entry): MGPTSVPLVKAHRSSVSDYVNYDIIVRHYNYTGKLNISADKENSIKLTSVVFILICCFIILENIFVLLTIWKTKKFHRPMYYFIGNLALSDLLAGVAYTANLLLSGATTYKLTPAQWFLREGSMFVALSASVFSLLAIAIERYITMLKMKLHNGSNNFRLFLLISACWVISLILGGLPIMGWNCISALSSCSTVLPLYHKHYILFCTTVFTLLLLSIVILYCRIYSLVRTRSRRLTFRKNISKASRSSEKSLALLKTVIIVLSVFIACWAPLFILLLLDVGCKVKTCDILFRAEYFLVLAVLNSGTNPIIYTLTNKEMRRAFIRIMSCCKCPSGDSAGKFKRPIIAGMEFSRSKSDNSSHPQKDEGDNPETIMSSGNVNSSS
Give the quantity in %, number only.

Some solved cases for reference:
{"compound": "CC(C)Oc1ccc(CN(C)c2ccc3c(c2)CCN(S(=O)(=O)CCC(=O)O)C3)cc1C#N", "unit.info": "%", "Activity": 9}
{"compound": "CC(C)Oc1ccc(COc2ccc3c(c2)CCCN3S(=O)(=O)CCCO)cc1C#N", "unit.info": "%", "Activity": 35}
{"compound": "CC(C)Oc1ccc(COc2ccc3c(c2)CCN(CCO)C3)cc1C#N", "unit.info": "%", "Activity": 32}
{"compound": "COC(=O)CCS(=O)(=O)N1CCc2cc(NCc3ccc(OC(C)C)c(C#N)c3)ccc2C1", "unit.info": "%", "Activity": 26}
{"compound": "CC(C)Oc1ccc(COc2ccc3c(c2)CCN(S(=O)(=O)CCC(=O)O)CC3)cc1C#N", "unit.info": "%", "Activity": 25}

Short answer on Sphingosine 1-phosphate receptor 1 (Homo sapiens) for CC(C)Oc1ccc(COc2cccc3c2CCN(S(=O)(=O)CCCO)C3)cc1C#N , Activity: 1

Short answer on Sphingosine 1-phosphate receptor 1 (Homo sapiens) for CC(C)Oc1ccc(COc2ccc3c(c2)OCCN(CCC(=O)O)C3)cc1C#N , Activity: 24

Short answer on Sphingosine 1-phosphate receptor 1 (Homo sapiens) for CC(C)Oc1ccc(COc2ccc3c(n2)CCN(C(=O)CCC(=O)O)C3)cc1C#N , Activity: 26

Short answer on Sphingosine 1-phosphate receptor 1 (Homo sapiens) for CC(C)Oc1ccc(COc2cccc3c2CCN(CCC(=O)O)C3)cc1C#N , Activity: 2

Short answer on Sphingosine 1-phosphate receptor 1 (Homo sapiens) for CC(C)Oc1ccc(COc2ccc3c(c2)CCN(S(=O)(=O)CC(=O)O)C3C)cc1C#N (stereo not given) , Activity: 17

Short answer on Sphingosine 1-phosphate receptor 1 (Homo sapiens) for CC(C)Oc1ccc(COc2ccc3c(c2)CCCN(CCC(=O)O)C3)cc1C#N , Activity: 2

Short answer on Sphingosine 1-phosphate receptor 1 (Homo sapiens) for CC(C)Oc1ccc(COc2ccc3c(c2)CN(CCC(=O)O)CCC3)cc1C#N , Activity: 6

Short answer on Sphingosine 1-phosphate receptor 1 (Homo sapiens) for CC(C)Oc1ccc(COc2ccc3c(c2)CCN(CCCCO)C3)cc1C#N , Activity: 24

Short answer on Sphingosine 1-phosphate receptor 1 (Homo sapiens) for COC(=O)CCS(=O)(=O)N1CCc2cc(N(C)Cc3ccc(OC(C)C)c(C#N)c3)ccc2C1 , Activity: 5

Short answer on Sphingosine 1-phosphate receptor 1 (Homo sapiens) for COC(=O)CN1CCc2cc(OCc3ccc(OC(C)C)c(C#N)c3)ccc2C1 , Activity: 32

Short answer on Sphingosine 1-phosphate receptor 1 (Homo sapiens) for COC(=O)CCS(=O)(=O)N1CCc2cc(Nc3ccc(OC(C)C)c(C#N)c3)ccc2C1 , Activity: 3

Short answer on Sphingosine 1-phosphate receptor 1 (Homo sapiens) for CC(C)Oc1ccc(C(=O)Nc2ccc3c(c2)CCN(S(=O)(=O)CCC(=O)O)C3)cc1C#N , Activity: 15

Short answer on Sphingosine 1-phosphate receptor 1 (Homo sapiens) for CC(C)Oc1ccc(COc2ccc3c(c2)CCN(CCCO)C3)cc1C#N , Activity: 30

Short answer on Sphingosine 1-phosphate receptor 1 (Homo sapiens) for CC(C)Oc1ccc(COc2ccc3c(c2)CN(S(=O)(=O)CCCO)CC3)cc1C#N , Activity: 7

Short answer on Sphingosine 1-phosphate receptor 1 (Homo sapiens) for COC(=O)CCS(=O)(=O)N1CCc2cc(NC(=O)c3ccc(OC(C)C)c(C#N)c3)ccc2C1 , Activity: 7

Short answer on Sphingosine 1-phosphate receptor 1 (Homo sapiens) for CC(C)Oc1ccc(COc2cccc3c2CCN(S(=O)(=O)CCC(=O)O)C3)cc1C#N , Activity: 1

Short answer on Sphingosine 1-phosphate receptor 1 (Homo sapiens) for CC(C)Oc1ccc(COc2ccc3c(c2)CN(CCC(=O)O)CC3)cc1C#N , Activity: 2

Short answer on Sphingosine 1-phosphate receptor 1 (Homo sapiens) for CC(C)Oc1ccc(COc2ccc3c(c2)CN(S(=O)(=O)CCC(=O)O)CC3)cc1C#N , Activity: 4

Short answer on Sphingosine 1-phosphate receptor 1 (Homo sapiens) for CC(C)Oc1ccc(COc2ccc3c(c2)CCN(C(C)C(=O)O)C3)cc1C#N (stereo not given) , Activity: 18

Short answer on Sphingosine 1-phosphate receptor 1 (Homo sapiens) for CC(C)Oc1ccc(COc2ccc3c(c2)CN(S(=O)(=O)CCC(=O)O)CCC3)cc1C#N , Activity: 0
